# experimental system: UniProt:P22437
# assay procedure: Evaluation of COX-1 activity: PGE2 formation in mouse peritoneal macrophages without aspirin and LPS treatment
# Format: cell-based
# assay setup: read-out: IC50, μg/ml COX-1 (converted)
IC50 strictly less than 50 µM = 1 (yes). Otherwise 0 (no).

See these solved cases before continuing.
compound	discrete label
CCC1(C)OC(c2ccc(S(C)(=O)=O)cc2)=C(c2cccc(OC)c2)C1=O (stereo not drawn)	0 (no)
CCC1(C)OC(c2ccc(S(C)(=O)=O)cc2)=C(c2ccccc2F)C1=O (stereo not drawn)	0 (no)
CCCc1ccc(C2=C(c3ccc(S(C)(=O)=O)cc3)OC(C)(CC)C2=O)cc1 (stereo not drawn)	1 (yes)
CCC1(C)OC(c2ccc(S(C)(=O)=O)cc2)=C(c2cccc(C(F)(F)F)c2)C1=O (stereo not drawn)	1 (yes)
CCC1(C)OC(c2ccc(S(C)(=O)=O)cc2)=C(c2cccc(C)c2)C1=O (stereo not drawn)	1 (yes)

Report whether reported IC50 is lower than 50 µM (strictly) for CCC1(C)OC(c2ccc(S(C)(=O)=O)cc2)=C(c2ccc(OC)c(F)c2)C1=O (stereo not drawn)
1 (yes)

Same question, CCC1(C)OC(c2ccc(S(C)(=O)=O)cc2)=C(c2ccc(Cl)c(C(F)(F)F)c2)C1=O (stereo not drawn) this time
1 (yes)

Same question, CCC1(C)OC(c2ccc(S(C)(=O)=O)cc2)=C(c2cccc(Cl)c2)C1=O (stereo not drawn) this time
1 (yes)

====

This listing pairs compounds with measured melting point.

Here is how some compounds turned out for melting point.
compound	melting point
C[S+]([O-])c1ccc(C2=C(c3ccccc3)C(=O)C(C)(C)O2)c(Cl)c1 (centres unmarked)	135 to 136 °C
CC1(C)OC(c2ccc(S(N)(=O)=O)cc2)=C(c2ccc(O)cc2)C1=O	164 to 165 °C
CC1(C)OC(c2ccc(S(C)(=O)=O)c(Br)c2)=C(c2ccccc2)C1=O	154 to 155 °C
CCC1(CC)OC(c2ccc(S(C)(=O)=O)cc2)=C(c2ccc(C(F)(F)F)cc2)C1=O	121 to 122 °C

Bench note: what melting point did `CC1(C)OC(c2ccc(S(C)(=O)=O)c(F)c2)=C(c2cccc(F)c2)C1=O` show?
182 to 183 °C

====

# experimental system: COX-2 (Mus musculus)
# Sequence (Q05769 18-604): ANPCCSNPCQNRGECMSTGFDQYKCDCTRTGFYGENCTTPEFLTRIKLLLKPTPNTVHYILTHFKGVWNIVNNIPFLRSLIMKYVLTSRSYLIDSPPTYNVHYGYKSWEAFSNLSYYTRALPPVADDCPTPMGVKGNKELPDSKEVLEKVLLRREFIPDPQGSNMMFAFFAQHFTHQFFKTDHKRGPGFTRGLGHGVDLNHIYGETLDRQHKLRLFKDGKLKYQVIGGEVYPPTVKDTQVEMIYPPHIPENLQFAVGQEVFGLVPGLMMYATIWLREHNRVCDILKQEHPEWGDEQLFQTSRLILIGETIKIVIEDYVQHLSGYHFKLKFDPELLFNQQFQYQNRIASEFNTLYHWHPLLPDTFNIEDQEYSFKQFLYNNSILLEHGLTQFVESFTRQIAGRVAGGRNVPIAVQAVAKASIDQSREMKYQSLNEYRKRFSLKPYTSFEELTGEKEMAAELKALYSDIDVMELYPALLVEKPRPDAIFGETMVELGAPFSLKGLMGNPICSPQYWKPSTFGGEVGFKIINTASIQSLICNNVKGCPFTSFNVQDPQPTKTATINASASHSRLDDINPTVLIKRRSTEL
# assay procedure: Evaluation of COX-2 activity: PGE2 formation in aspirin-treated, LPS-stimulated mouse peritoneal macrophages
# Assay type: cell-based
This listing pairs compounds with measured IC50, μg/ml COX-2.
Only the number, expressed in µg/mL, is required.

Here is how some compounds turned out for IC50, μg/ml COX-2.
compound	experimental system	IC50, μg/ml COX-2 / µg/mL
CC1(C)OC(c2ccc(S(N)(=O)=O)c(F)c2)=C(c2cccc(F)c2)C1=O [Example 302]	COX-2 (Mus musculus)	0.03
CC1(C)OC(c2ccc(S(C)(=O)=O)c(Cl)c2)=C(c2cccc(Cl)c2)C1=O [Example 358]	COX-2 (Mus musculus)	0.02
CCC1(C)OC(c2ccc(S(N)(=O)=O)cc2)=C(c2cccc(OC)c2)C1=O (centres unmarked) [Example 236]	COX-2 (Mus musculus)	0.0097

Bench note: what IC50, μg/ml COX-2 did CC1(C)OC(c2ccc(S(N)(=O)=O)c(Br)c2)=C(c2ccccc2)C1=O [Example 351] show?
0.9

Same question, CC1(C)OC(c2ccc(S(N)(=O)=O)c(F)c2)=C(c2ccccc2)C1=O [Example 300] this time
0.03

Same question, CC1(C)OC(c2ccc(S(C)(=O)=O)cc2)=C(c2ccco2)C1=O [Example 18] this time
0.2

Same question, CC1(C)OC(c2ccc(S(C)(=O)=O)cc2)=C(c2ccccc2O)C1=O [Example 105] this time
0.03

Same question, COc1cccc(C2=C(c3ccc(S(N)(=O)=O)cc3)OC(C)(C)C2=O)c1 [Example 135] this time
0.055

====

parameter: melting point

Here is how some molecules turned out for melting point.
chemical string	experimental value
CC1(C)OC(c2ccc(S(C)(=O)=O)c(Cl)c2)=C(c2ccc(F)c(F)c2)C1=O	150 to 151 °C
CC1(C)OC(c2ccc(S(N)(=O)=O)cc2)=C(c2cccc(-c3ccccc3)c2)C1=O	160 to 161 °C
CC(=O)c1cccc(C2=C(c3ccc(S(C)(=O)=O)cc3)OC(C)(C)C2=O)c1	189 to 190 °C

Bench note: what melting point did `CC(C)c1cccc(C2=C(c3ccc(S(C)(=O)=O)cc3)OC(C)(C)C2=O)c1` show?
83 to 84 °C

Same question, `CCC1(CC)OC(c2ccc(S(C)(=O)=O)cc2)=C(c2ccc(F)c(Cl)c2)C1=O` this time
173 to 174 °C

Same question, `CC1(C)OC(c2ccc(S(C)(=O)=O)c(F)c2)=C(c2cc(F)ccc2F)C1=O` this time
140 to 141 °C

Same question, `CC1(C)OC(c2ccc(S(N)(=O)=O)cc2)=C(c2ccccc2F)C1=O` this time
188 to 189 °C

Same question, `COc1cccc(C2=C(c3ccc(S(N)(=O)=O)cc3)OC(C)(C)C2=O)c1` this time
259 to 260 °C

Same question, `CC1(C)OC(c2ccc(S(C)(=O)=O)cc2)=C(c2ccccc2O)C1=O` this time
182 to 183 °C

Same question, `CS(=O)(=O)c1ccc(C2=C(c3cccc(Cl)c3)C(=O)C3(CCOCC3)O2)cc1` this time
96 to 99 °C

====

This listing pairs molecules with measured melting point.

Here is how some molecules turned out for melting point.
molecule	parameter	experimental value
CC1(C)OC(c2ccc(S(C)(=O)=O)c(F)c2)=C(c2ccccc2)C1=O	melting point	190 to 191 °C
C[S+]([O-])c1ccc(C2=C(c3cccc(F)c3)C(=O)C(C)(C)O2)cc1 (centres unmarked)	melting point	143 to 144 °C
CC1(C)OC(c2ccc(S(C)(=O)=O)cc2)=C(c2cccc(N)c2)C1=O	melting point	186 to 187 °C
CC1(C)OC(c2ccc(S(C)(=O)=O)cc2)=C(c2ccc(F)c(F)c2)C1=O	melting point	162 °C
CCC1(C)OC(c2ccc(S(C)(=O)=O)cc2)=C(c2cccc(C(F)(F)F)c2)C1=O (centres unmarked)	melting point	45 to 46 °C
CC1(C)OC(c2ccc(S(N)(=O)=O)c(F)c2)=C(c2ccc(F)cc2)C1=O	melting point	190 to 192 °C
Cc1cccc(C2=C(c3ccc(S(C)(=O)=O)cc3)OC3(CCCCC3)C2=O)c1	melting point	154 to 155 °C
CC1(C)OC(c2ccc(S(N)(=O)=O)cc2F)=C(c2cccc(F)c2)C1=O	melting point	168 to 170 °C
CC1(C)OC(c2ccc(S(C)(=O)=O)cc2F)=C(c2ccccc2)C1=O	melting point	175 to 176 °C
CC1(C)OC(c2ccc(S(C)(=O)=O)c(F)c2)=C(c2cccc(Cl)c2)C1=S	melting point	105 to 106 °C

Bench note: what melting point did C[S+]([O-])c1ccc(C2=C(c3ccccc3)C(=O)C(C)(C)O2)cc1Cl (centres unmarked) show?
120 to 121 °C

Same question, `CC1(C)OC(c2ccc(S(C)(=O)=O)c(F)c2)=C(c2cc(F)cc(F)c2)C1=O` this time
163 to 164 °C

Same question, CCC1(C)OC(c2ccc(S(C)(=O)=O)cc2)=C(c2ccccc2F)C1=O (centres unmarked) this time
108 to 109 °C

Same question, `CNS(=O)(=O)c1ccc(C2=C(c3ccccc3)C(=O)C(C)(C)O2)cc1Cl` this time
136 to 137 °C

====

This listing pairs compounds with measured IC50, μg/ml COX-1.
# experimental system: COX-1 (Mus musculus, UniProt P22437)
# Sequence (P22437 27-602): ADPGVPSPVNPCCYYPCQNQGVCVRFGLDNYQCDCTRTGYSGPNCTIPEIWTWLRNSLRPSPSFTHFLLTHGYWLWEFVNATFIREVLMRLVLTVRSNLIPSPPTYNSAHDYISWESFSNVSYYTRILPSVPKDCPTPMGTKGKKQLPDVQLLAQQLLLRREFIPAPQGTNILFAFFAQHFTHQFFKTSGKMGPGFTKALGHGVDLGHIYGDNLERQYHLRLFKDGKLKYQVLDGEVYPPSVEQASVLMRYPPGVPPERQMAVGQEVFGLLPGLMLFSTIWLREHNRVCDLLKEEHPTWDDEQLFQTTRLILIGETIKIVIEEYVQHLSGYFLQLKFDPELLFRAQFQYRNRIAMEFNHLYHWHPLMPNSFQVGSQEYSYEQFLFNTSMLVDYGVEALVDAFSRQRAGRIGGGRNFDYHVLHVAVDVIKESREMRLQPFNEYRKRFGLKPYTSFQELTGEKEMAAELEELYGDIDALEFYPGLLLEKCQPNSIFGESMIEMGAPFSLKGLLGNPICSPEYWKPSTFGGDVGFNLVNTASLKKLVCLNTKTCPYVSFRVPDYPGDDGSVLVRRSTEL
# assay procedure: Evaluation of COX-1 activity: PGE2 formation in mouse peritoneal macrophages without aspirin and LPS treatment
# Format: cell-based
Only the number, expressed in µg/mL, is required.

compound	experimental system	parameter	experimental value
CS(=O)(=O)c1ccc(C2=C(c3cc(F)cc(F)c3)C(=O)C3(CCCC3)O2)cc1	COX-1 (Mus musculus, UniProt P22437)	IC50, μg/ml COX-1	5

Bench note: what IC50, μg/ml COX-1 did `CSc1ccc(C2=C(c3cccc(Cl)c3)C(=O)C(C)(C)O2)cc1` show?
3

Same question, `CC1(C)OC(c2ccc(S(C)(=O)=O)cc2)=C(c2cccc([N+](=O)[O-])c2)C1=O` this time
5

====

parameter: melting point

molecule	melting point
CC1(C)OC(c2ccc(S(C)(=O)=O)c(Br)c2)=C(c2cccc(F)c2)C1=O [Example 343]	133 to 134 °C
CC1(C)OC(c2ccc(S(N)(=O)=O)cc2)=C(c2cc(Cl)cc(Cl)c2)C1=O [Example 149]	209 to 210 °C
CSc1ccc(C2=C(c3cccc(F)c3)C(=O)C(C)(C)O2)cc1 [Example 166]	106 °C

Bench note: what melting point did Cc1cc(C2=C(c3cccc(F)c3)C(=O)C(C)(C)O2)ccc1S(N)(=O)=O [Example 380] show?
81 to 82 °C

Same question, CC(C)c1ccc(C2=C(c3ccc(S(C)(=O)=O)cc3)OC(C)(C)C2=O)cc1 [Example 84] this time
121 to 123 °C

Same question, CC1(C)OC(c2ccc(S(C)(=O)=O)cc2)=C(c2cc3ccccc3o2)C1=O [Example 16] this time
140 to 141 °C

Same question, CCS(=O)(=O)c1ccc(C2=C(c3ccc(S(C)(=O)=O)cc3)OC(C)(C)C2=O)cc1 [Example 110] this time
198 to 203 °C

Same question, Cc1cccc(C2=C(c3ccc(S(C)(=O)=O)cc3)OC3(CCCC3)C2=O)c1 [Example 255] this time
142 to 143 °C

Same question, CC1(C)OC(c2ccc(S(C)(=O)=O)cc2)=C(c2cccc3ccccc23)C1=O [Example 13] this time
194 to 195 °C

Same question, CNS(=O)(=O)c1ccc(C2=C(c3cccc(F)c3)C(=O)C(C)(C)O2)cc1 [Example 184] this time
176 to 177 °C

Same question, CC1(C)OC(c2ccc(S(C)(=O)=O)c(F)c2)=C(c2c(F)cccc2F)C1=O [Example 283] this time
113 to 115 °C
